test details: physchem
condition info: artificial intestinal juice
Consider the following molecules and their measured solubility readings.
quantity measured: solubility

INSERT INTO assay_data (molecule, result) VALUES
  ('CC(C)Cc1ccc(C(C)C(=O)O)cc1 (racemic) [racemic ibuprofen]', '5910 µg/mL'),
  ('CC(C)Cc1ccc([C@H](C)C(=O)O)cc1 [S(+) ibuprofen]', '6980 µg/mL');

* * *

test details: physchem
condition info: water
Consider the following compounds and their measured solubility readings.
quantity measured: solubility (µg/mL)

INSERT INTO assay_data (compound, numeric_result) VALUES
  ('CC(C)Cc1ccc([C@H](C)C(=O)O)cc1 [S(+) ibuprofen]', 134),
  ('CC(C)Cc1ccc(C(C)C(=O)O)cc1 (racemic) [racemic ibuprofen]', 82);

* * *

test details: physchem
condition info: artificial gastric juice
quantity measured: solubility (µg/mL)

INSERT INTO assay_data (compound, numeric_result) VALUES
  ('CC(C)Cc1ccc(C(C)C(=O)O)cc1 (racemic) [racemic ibuprofen]', 79),
  ('CC(C)Cc1ccc([C@H](C)C(=O)O)cc1 [S(+) ibuprofen]', 131);
